assay: Acute toxicity, mouse, intravenous; conditions: in vivo, read-out: i.v. LD80
property-label: LD50 (mg/kg)
Quick reminder: number only, in mg/kg, skip the unit.

Cc1ccc(C(=O)c2c(C)cc(C)cc2OCC(O)CNC(C)(C)C)cc1 (racemic) [Compound I]; 24
Cc1cc(C)c(C(=O)c2c(C)cccc2C)c(OCC(O)CNC(C)C)c1 (racemic) [E]; 42
Cc1cc(C)c(C(=O)c2ccccc2C)c(OCC(O)CNC(C)C)c1 (racemic) [D]; 34

# context switch: different molecule, same LD50
Query (molecule): Cc1cc(C)c(C(=O)c2ccccc2)c(OCC(O)CNC(C)C)c1 (racemic) [Compound A] ; field requested: LD50
40
